Biological target: UniProt:O75762
Sequence (O75762 whole entry): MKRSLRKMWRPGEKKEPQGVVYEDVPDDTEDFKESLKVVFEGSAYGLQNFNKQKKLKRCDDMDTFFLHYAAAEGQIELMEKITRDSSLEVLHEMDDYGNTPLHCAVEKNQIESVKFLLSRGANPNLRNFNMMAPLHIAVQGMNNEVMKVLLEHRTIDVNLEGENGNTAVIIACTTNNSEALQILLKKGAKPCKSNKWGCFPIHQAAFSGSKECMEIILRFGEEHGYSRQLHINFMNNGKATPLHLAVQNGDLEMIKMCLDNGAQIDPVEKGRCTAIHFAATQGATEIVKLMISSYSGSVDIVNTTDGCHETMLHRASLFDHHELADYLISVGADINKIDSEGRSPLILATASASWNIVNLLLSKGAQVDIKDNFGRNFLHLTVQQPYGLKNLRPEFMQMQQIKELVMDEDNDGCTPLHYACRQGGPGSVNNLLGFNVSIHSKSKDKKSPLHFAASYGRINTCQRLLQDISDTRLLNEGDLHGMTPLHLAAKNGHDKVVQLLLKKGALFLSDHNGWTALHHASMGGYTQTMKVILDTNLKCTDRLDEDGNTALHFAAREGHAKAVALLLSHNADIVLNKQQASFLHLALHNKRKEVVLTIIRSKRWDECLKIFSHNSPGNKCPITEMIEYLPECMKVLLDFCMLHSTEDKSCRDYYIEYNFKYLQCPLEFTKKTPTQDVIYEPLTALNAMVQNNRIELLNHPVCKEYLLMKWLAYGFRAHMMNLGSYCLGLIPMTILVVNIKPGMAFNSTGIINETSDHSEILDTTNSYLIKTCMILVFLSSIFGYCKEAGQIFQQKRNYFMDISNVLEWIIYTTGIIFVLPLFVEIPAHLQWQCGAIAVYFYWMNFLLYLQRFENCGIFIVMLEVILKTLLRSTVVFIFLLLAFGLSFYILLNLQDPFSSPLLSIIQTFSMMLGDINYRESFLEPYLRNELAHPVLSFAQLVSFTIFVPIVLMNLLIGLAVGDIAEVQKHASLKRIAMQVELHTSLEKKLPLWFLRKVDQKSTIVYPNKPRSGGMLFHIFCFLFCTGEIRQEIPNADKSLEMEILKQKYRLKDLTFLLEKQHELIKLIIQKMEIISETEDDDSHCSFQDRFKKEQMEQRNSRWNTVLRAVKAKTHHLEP
Assay: Antagonist activity at human TRPA1 channel assessed as inhibition of formalin-induced intracellular calcium influx
Format: functional, cell-based
metric_name: IC50 (µM)

- entry_smiles: "CC(C)c1ccc(NC(=O)Cn2cnc3c2c(=O)n(C)c(=O)n3C)cc1"
  unit_name: "µM"
  quantitative_result: 5.3

###

Molecular target: Transient receptor potential cation channel subfamily A member 1 (Rattus norvegicus, UniProt Q6RI86)
Sequence (Q6RI86 whole entry): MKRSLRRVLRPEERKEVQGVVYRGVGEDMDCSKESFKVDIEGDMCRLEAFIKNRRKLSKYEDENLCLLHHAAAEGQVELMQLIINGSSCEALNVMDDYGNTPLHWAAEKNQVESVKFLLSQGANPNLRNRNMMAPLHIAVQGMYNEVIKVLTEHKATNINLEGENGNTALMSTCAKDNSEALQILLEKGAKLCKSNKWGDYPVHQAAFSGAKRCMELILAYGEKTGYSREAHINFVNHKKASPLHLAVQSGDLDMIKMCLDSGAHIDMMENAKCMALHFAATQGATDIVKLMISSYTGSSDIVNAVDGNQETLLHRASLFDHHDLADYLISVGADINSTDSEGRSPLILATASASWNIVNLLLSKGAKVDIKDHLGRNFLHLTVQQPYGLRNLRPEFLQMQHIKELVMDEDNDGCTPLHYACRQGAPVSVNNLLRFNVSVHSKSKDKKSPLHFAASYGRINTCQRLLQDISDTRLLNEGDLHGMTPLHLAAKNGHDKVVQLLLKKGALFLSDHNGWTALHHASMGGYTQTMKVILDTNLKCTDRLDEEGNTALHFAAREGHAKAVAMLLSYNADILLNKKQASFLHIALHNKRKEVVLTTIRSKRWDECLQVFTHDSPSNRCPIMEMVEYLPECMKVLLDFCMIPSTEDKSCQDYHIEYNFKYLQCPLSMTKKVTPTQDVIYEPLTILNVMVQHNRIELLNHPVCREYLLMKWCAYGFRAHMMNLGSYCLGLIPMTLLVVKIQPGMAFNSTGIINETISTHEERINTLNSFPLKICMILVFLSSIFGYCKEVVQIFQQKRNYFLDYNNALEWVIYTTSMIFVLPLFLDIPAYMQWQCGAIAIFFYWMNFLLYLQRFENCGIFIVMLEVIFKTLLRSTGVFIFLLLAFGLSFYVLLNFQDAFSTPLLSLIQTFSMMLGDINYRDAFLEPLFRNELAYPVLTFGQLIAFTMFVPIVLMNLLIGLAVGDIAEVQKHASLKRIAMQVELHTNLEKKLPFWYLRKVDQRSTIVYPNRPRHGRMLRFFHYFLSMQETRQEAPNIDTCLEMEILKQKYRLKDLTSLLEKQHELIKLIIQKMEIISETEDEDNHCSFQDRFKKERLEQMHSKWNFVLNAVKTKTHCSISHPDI
Test: Agonist activity at TRPA1 channel in rat DRG neurons assessed as increase in intracellular calcium influx
Type: functional, cell-based
Let's look at some compounds and their measured EC50.

- compound: "CCCCCC(O)/C=C/C=O (configuration not stated) [4-HYDROXYNON-2-ENAL]"
  EC50: "19.9 µM"
- compound: "CCCCCc1cc(O)c2c(c1)OC(C)(CCC=C(C)C)C=C2 (configuration not stated) [CANNABICHROMENE]"
  EC50: "34.3 µM"

Provenance of the data: ChEMBL document CHEMBL1155439
